Value source: patent US20190367619A1

- Tested on: T1, TEV-cleaved wild-type recombinant human galectin-10 (soluble, in Fab complexes, or as recombinant galectin-10 … (human, UniProt Q05315 1-142)); also: time not given here
- T1 sequence: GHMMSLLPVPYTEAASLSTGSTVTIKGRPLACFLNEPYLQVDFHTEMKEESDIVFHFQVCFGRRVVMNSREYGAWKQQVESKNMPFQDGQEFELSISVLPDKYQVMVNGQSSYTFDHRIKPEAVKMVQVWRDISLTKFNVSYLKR
- Protocol: cell-based or functional assay
Property name: 100% Solubilization of CLC (Conc uM) (µM)

2F09 mouse IgG1 (antibody, V domains shown, VH on mouse IgG1 heavy chain constant domains (CH1-CH2-CH3), VL on mouse lambda light chain constant domain; also called 2F09 mIgG1) VH: QVQVQESGPGLVKPSQTLSLTCTVSGGSITTNYFYWSWIRQSPGKGLEWIGAIAYSGRTYYSPSLKSRTSISRDTSNNQFTLQLSSVTPEDTAVYYCARGPKGLASYYDYWGQGTQVTVSS VL: SSALTQPSAVSVSLGQTARITCQGGNFGYYYVSWYQQKPGQAPVLVIYRDSGRPSGIPERFSGSSSGDTATLTISGAQAEDEADYYCQSGSSSDNTVFGGGTHLTVL	10.7
